- ASSAY_METHOD_TEXT: In vivo pharmacokinetic assay
- Parameters: species or system SD rats
- EXPERIMENTAL_PARAMETERS: male, SD, rat, plasma, po, 10 mg/kg
QUANTITY_MEASURED: CL/F
Dear colleague, please send the value followed by its unit.

INPUT: Query CL/F for COc1ccc(S(=O)(=O)Nc2ccc(N(CC(=O)N3CCSC3=O)S(=O)(=O)c3ccc(OC)cc3)c3ccccc23)cc1 [pro2]
OUTPUT: 26.4 mL/min/kg

###

- ASSAY_METHOD_TEXT: In vivo pharmacokinetic assay
- Design: species or system SD rats
- EXPERIMENTAL_PARAMETERS: male, SD, rat, plasma, oral
QUANTITY_MEASURED: bioavailability (%)
All answers are understood in %, so give the number only.

INPUT: Query bioavailability for COc1ccc(S(=O)(=O)Nc2ccc(N(CC(=O)N3CCSC3=O)S(=O)(=O)c3ccc(OC)cc3)c3ccccc23)cc1
OUTPUT: 68.1

Data origin: paper PMC7231841
